For each entry below, report its nuclei count value.
procedure summary: endothelial E-selectin expression blockers – imaging, HUVEC, immunofluorescence, MLSMR starter and 10KST1 sets, primary screen (AID 487);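 for nuclei count: 100% = median nuclei count of all wells on the same plate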
condition label: HUVEC TNFalpha-induced E-selectin immunofluorescence imaging, at 2 µM; measured here: cell number, toxicity
Numbers only, in %.

{"compound": "COc1ccc(C(=O)CN2CCOCC2)cc1F", "measured result": 168}
{"compound": "O=C(O)CCCc1ccc(N(CCCl)CCCl)cc1", "measured result": 127}
{"compound": "O=C(CN1CCN(Cc2cccc(Cl)c2)C1=O)N1CCC2(CC1)OCCO2", "measured result": 111}
{"compound": "c1ccc(Cn2ccnc2)cc1", "measured result": 130}
{"compound": "Cc1c2ccncc2c(C)c2c1[nH]c1ccccc12", "measured result": 100}

Please report nuclei count for every entry that follows.
1. O=C(Cc1ccccc1)OC(COCc1ccccc1)CN1CCOCC1 (stereo not drawn)
2. COc1ccccc1OCCCn1cc(C(=O)c2ccco2)c2ccccc21
3. COc1ccc2[nH]cc(CCN(C)C)c2c1
4. CC(=O)C1C(=O)NC23CCCCC2C1c1ccccc1O3 (stereo not drawn)
5. O=c1[nH]c(=O)n(CCc2ccc(F)cc2)c(O)c1C=NCCCn1ccnc1

Ans:
1. 117
2. 111
3. 102
4. 99.5
5. 102

---

For each entry below, report its inhibition value.
procedure summary: endothelial E-selectin expression blockers – imaging, HUVEC, immunofluorescence, MLSMR starter and 10KST1 sets, primary screen (AID 487);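 for inhibition: signal is fraction of cell area covered by stained E-selectin grains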
condition label: HUVEC TNFalpha-induced E-selectin immunofluorescence imaging, at 2 µM; stronger effect = higher value
Give bare numbers, in %.

Guide cases for inhibition, answers given:
{"compound": "COc1ccc(C(=O)CC2C(=O)N(C)C(=O)N(C)C2=O)cc1", "inhibition (%)": -27.9}
{"compound": "COC(=O)CC1(Cc2ccccc2)C(=O)NC(=O)NC1=O", "inhibition (%)": -73.6}
{"compound": "CN1CCc2nc(SCC(=O)OC(C)(C)C)c(C#N)cc2C1", "inhibition (%)": -56.3}
{"compound": "CC(C)OC(=O)c1c(N)n(Cc2ccco2)c2nc3ccccc3nc12", "inhibition (%)": -136}
{"compound": "C=CCn1c(O)c(C=Nc2ccc(N(CC)CC)cc2)c(=O)[nH]c1=O", "inhibition (%)": -65.7}
{"compound": "COC(=O)C(O)(c1c[nH]c2ccccc12)C(F)(F)F (stereo not given)", "inhibition (%)": -19.2}

Please report inhibition for every entry that follows.
1. O=C(c1ccc2nc(-c3ccco3)c(-c3ccco3)nc2c1)N1CCC2(CC1)OCCO2
2. CC[C@@H](CO)NC(=O)[C@@H]1C=C2c3cccc4c3c(cn4C)C[C@H]2N(C)C1
3. c1cncc(CNC2=NCCCCC2)c1
4. Cc1c(N=Cc2c(O)n(CCc3ccc(F)cc3)c(=O)[nH]c2=O)c(=O)n(-c2ccccc2)n1C

Ans:
9
-32.5
-154
-9.6

---

experimental target: Alpha-2C adrenergic receptor (Homo sapiens)
procedure summary: compounds altering alpha2C-coupled GIRK flux – cell-based, HEK293 alpha2C/GIRK1/2, thallium flux, primary screen (AID 624);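 note: slope of fluorescence ratio to pre-addition baseline per second over 15 to 24 s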
condition label: thallium flux BTC fluorescence, at 10 µM, actives lie on both sides
Activity calls are given as the source filed them.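 The calls were made as follows: active = fluorescence slope after compound addition differing from the mean of all screened samples at 99.7% confidence, in either direction; inactive = the rest.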
For each entry below, report its slope value.

Guide cases for slope, answers given:
{"compound": "O=P(OCC(F)(F)C(F)F)(N1CCCCC1)N1CCCCC1", "measured result": "0.00426 (inactive)"}
{"compound": "CN1C(=O)CN=C(c2ccc(Cl)cc2)c2cc(Cl)ccc21", "measured result": "0.00345 (inactive)"}
{"compound": "CC(C)OC(=O)c1c(N)n(Cc2ccco2)c2nc3ccccc3nc12", "measured result": "0.00512 (inactive)"}
{"compound": "CCCCc1nc2ccccc2c(=O)n1-c1ccccc1O", "measured result": "0.00524 (inactive)"}
{"compound": "COc1ccc(OC)c(N2C(=O)NC(=O)C(CCc3ccncc3)(CCc3ccncc3)C2=O)c1", "measured result": "0.00479 (inactive)"}

Please report slope for every entry that follows.
1. Cn1c(=O)cc(OCC(=O)N2CCN(C3CCCCC3)CC2)c2ccccc21
2. CC(C)OCCCNC(=O)c1c(N)n(CC2CCCO2)c2nc3ccccc3nc12 (configuration not stated)
3. c1ccc(Cn2ccnc2)cc1
4. Cc1c(N=Cc2c(O)n(CCc3ccccc3)c(=O)[nH]c2=O)c(=O)n(-c2ccccc2)n1C

Ans:
1. 0.00729 (inactive)
2. 0.00623 (inactive)
3. 0.00411 (inactive)
4. 0.00632 (inactive)

Just for reference, PubChem BioAssay is where these values come from.
